Reported values of inhibition in vivo at 100 mg/kg for individual entries
- System: Mus musculus
- Test description: Antiinflammatory activity in Kunming mouse assessed as inhibition of xylene-induced ear edema at 100 mg/kg, po administered for 3 days followed by xylene-challenge at 2 hrs post-last dose measured after 1 hr relative to vehicle-treated control
- Format: functional

# Smiles text, inhibition in vivo at 100 mg/kg
rows = [
    ("CC(=O)Oc1ccccc1C(=O)NCC(=O)O[C@H]1CC[C@@]2(C)C(=CC[C@H]3[C@@H]4C[C@@H]5O[C@]6(CC[C@@H](C)CO6)[C@@H](C)[C@@H]5[C@@]4(C)CC[C@@H]32)C1", "39.1%"),
    ("C[C@@H]1CC[C@@]2(OC1)O[C@H]1C[C@H]3[C@@H]4CC=C5C[C@@H](OC(=O)CCCCCN)CC[C@]5(C)[C@H]4CC[C@]3(C)[C@H]1[C@@H]2C", "38.6%"),
    ("C[C@@H]1CC[C@@]2(OC1)O[C@H]1C[C@H]3[C@@H]4CC=C5C[C@@H](OC(=O)[C@H](C)NC(=O)c6ccccc6O)CC[C@]5(C)[C@H]4CC[C@]3(C)[C@H]1[C@@H]2C", "35.8%"),
    ("C[C@@H]1CC[C@@]2(OC1)O[C@H]1C[C@H]3[C@@H]4CC=C5C[C@@H](OC(=O)CC[C@@H](NC(=O)c6ccccc6O)C(=O)O[C@H]6CC[C@@]7(C)C(=CC[C@H]8[C@@H]9C[C@@H]%10O[C@]%11(CC[C@@H](C)CO%11)[C@@H](C)[C@@H]%10[C@@]9(C)CC[C@@H]87)C6)CC[C@]5(C)[C@H]4CC[C@]3(C)[C@H]1[C@@H]2C", "30.1%"),
    ("C[C@@H]1CC[C@@]2(OC1)O[C@H]1C[C@H]3[C@@H]4CC=C5C[C@@H](OC(=O)CCCCCNC(=O)c6ccccc6O)CC[C@]5(C)[C@H]4CC[C@]3(C)[C@H]1[C@@H]2C", "42.6%"),
    ("C[C@@H]1CC[C@@]2(OC1)O[C@H]1C[C@H]3[C@@H]4CC=C5C[C@@H](O)CC[C@]5(C)[C@H]4CC[C@]3(C)[C@H]1[C@@H]2C", "32.2%"),
    ("C[C@@H]1CC[C@@]2(OC1)O[C@H]1C[C@H]3[C@@H]4CC=C5C[C@@H](OC(=O)CN)CC[C@]5(C)[C@H]4CC[C@]3(C)[C@H]1[C@@H]2C", "30.6%"),
    ("CC(=O)Oc1ccccc1C(=O)O[C@H]1CC[C@@]2(C)C(=CC[C@H]3[C@@H]4C[C@@H]5O[C@]6(CC[C@@H](C)CO6)[C@@H](C)[C@@H]5[C@@]4(C)CC[C@@H]32)C1", "46.5%"),
    ("C[C@@H]1CC[C@@]2(OC1)O[C@H]1C[C@H]3[C@@H]4CC=C5C[C@@H](OC(=O)CC[C@@H](N)C(=O)O[C@H]6CC[C@@]7(C)C(=CC[C@H]8[C@@H]9C[C@@H]%10O[C@]%11(CC[C@@H](C)CO%11)[C@@H](C)[C@@H]%10[C@@]9(C)CC[C@@H]87)C6)CC[C@]5(C)[C@H]4CC[C@]3(C)[C@H]1[C@@H]2C", "19.1%"),
    ("C[C@@H]1CC[C@@]2(OC1)O[C@H]1C[C@H]3[C@@H]4CC=C5C[C@@H](OC(=O)[C@H](C)N)CC[C@]5(C)[C@H]4CC[C@]3(C)[C@H]1[C@@H]2C", "28.6%"),
]
